Measured values drawn from patent US20240209100A1 for this set.

# target_under_test: T1, IL-18 receptor (IL-18Rα/IL-18Rβ) overexpressed on HEK-Blue IL-18 cells (Homo sapiens (Human), UniProt Q13478 19-541; O95256 20-599)
# T1 sequence 1: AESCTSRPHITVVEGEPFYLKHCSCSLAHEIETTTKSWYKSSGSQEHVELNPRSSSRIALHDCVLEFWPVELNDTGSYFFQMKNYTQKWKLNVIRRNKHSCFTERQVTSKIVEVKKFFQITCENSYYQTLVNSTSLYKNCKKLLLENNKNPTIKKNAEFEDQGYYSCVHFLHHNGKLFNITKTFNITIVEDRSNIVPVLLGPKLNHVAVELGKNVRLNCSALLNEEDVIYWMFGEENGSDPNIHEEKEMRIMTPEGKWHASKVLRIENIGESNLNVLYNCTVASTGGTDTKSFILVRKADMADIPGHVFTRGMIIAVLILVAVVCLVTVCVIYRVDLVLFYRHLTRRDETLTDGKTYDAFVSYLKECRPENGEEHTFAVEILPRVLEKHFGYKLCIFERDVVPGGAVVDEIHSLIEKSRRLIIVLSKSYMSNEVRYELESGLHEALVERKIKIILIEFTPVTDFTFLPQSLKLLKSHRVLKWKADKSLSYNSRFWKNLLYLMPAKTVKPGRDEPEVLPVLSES
# T1 sequence 2: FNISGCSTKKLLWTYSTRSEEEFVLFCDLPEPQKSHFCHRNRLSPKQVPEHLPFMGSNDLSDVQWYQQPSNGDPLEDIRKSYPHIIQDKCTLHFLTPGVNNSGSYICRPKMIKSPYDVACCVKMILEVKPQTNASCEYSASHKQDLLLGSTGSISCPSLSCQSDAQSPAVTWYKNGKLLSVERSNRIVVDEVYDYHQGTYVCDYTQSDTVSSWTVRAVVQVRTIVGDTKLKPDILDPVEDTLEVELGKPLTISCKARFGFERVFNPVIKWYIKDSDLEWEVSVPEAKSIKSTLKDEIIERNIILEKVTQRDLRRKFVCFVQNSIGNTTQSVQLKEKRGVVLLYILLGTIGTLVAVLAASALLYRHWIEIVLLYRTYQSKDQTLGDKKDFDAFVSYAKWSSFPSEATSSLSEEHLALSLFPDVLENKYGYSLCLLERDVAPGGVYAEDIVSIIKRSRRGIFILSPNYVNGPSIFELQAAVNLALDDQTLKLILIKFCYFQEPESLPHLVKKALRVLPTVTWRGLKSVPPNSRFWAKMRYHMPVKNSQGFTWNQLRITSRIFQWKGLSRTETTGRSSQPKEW
# experiment_notes: cell-based or functional assay
measured_quantity: HEK-Blue IL-18: Abs 405 (Abs)
Enter your answer as a number in Abs; do not include the unit.

Use the examples below as a reference point.
[[record]]
binder = "DGL245 (bispecific antibody, V domains shown) V domain 1: EVQLVESGGGLVQPGGSLRLSCAASGFTLDYYTIGWFRQAPGKEREGVSCISSSGGSTNYADYVKGRFTISRDNAKNTVSLQMNSLKPEDTAVYYCAAESLIPLVETMCVMSVDDYDYWGQGTQVTVSS V domain 2: QLQLVESGGGLVQAGGSLRLSCAASRSITFSHNVMGWYRQAPGKQRELVASIGSGGSTNYVDSVKGRATISRDNAKKTVYLQMNSLKPEDTAVYYCGVVVGVYRGSLGQGTQVTVSS"
units = "Abs"
test_result = 2.1

[[record]]
binder = "DGL247 (bispecific antibody, V domains shown) V domain 1: QVQLVESGGGSVQAGDSLRLSCAGSGRTFSSYVLGWFRQAPGKEREFVASISWSGDGTYYADSVKGRFTISRDNAENMVYLQMNSLKPEDTAVYYCAADGTTALAMSRLDASTYDFDYWGQGTQVTVSS V domain 2: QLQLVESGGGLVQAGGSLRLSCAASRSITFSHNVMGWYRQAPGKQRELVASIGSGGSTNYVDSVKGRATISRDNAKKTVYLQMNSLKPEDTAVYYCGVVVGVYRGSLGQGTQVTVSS"
units = "Abs"
test_result = 0.53


// next item, HEK-Blue IL-18: Abs 405 requested
Challenge: Which HEK-Blue IL-18: Abs 405 value belongs to DGL251 (bispecific antibody, V domains shown) V domain 1: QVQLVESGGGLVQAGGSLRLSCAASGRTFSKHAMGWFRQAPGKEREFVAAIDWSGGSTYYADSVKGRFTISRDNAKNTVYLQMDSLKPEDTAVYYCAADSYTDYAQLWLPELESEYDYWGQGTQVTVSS V domain 2: EVQLVESGGGLVQTGGSLRLSCVASETITDTFRMGWYRQAPGQQRELVAAITHTSETTYGDSVTGRFTISGDTAKNMVHLQMNSLKPEDTGVYYCNIRAWRRPDYWGQGTQVTVSS ?
Response given: 0.31
